- Test system: human pancreatic cancer cell line SW1990
- PROCEDURE DETAILS: CTG proliferation inhibition, SW1990
- Assay type: cell-based
- RUN PARAMETERS: 72 h incubation, read-out: IC50 (nM) of the test compounds for various tumor cell lines
// classify: if (IC50 < 6 nM) label 1 else label 0

# COMPOUND, CATEGORY
records = [
    ("CC(=O)OC12COC1CC(O)C1(C)C(=O)C(OC(=O)Nc3ccc(C(C)O)cc3)C3=C(C)C(OC(=O)C(O)C(NC(=O)OC(C)(C)C)c4ccccc4)CC(O)(C(OC(=O)c4ccccc4)C21)C3(C)C (centres unmarked) [Compound I-8]", "label 0"),
]

Is 6 nM strictly greater than the compound's reported IC50? compound: CC(=O)OC12COC1CC(O)C1(C)C(=O)C(OC(=O)Nc3ccc(C(C)O)cc3)C3=C(C)C(OC(=O)C(O)C(NC(=O)OC(C)(C)C)c4ccccc4)CC(O)(C(OC(=O)c4ccccc4)C21)C3(C)C (centres unmarked) [Compound I-2]
label 1

Hi there! Is IC50 for CC(=O)OC12COC1CC(O)C1(C)C(=O)C(OC(=O)Nc3ccc(C(C)O)cc3)C3=C(C)C(OC(=O)C(O)C(NC(=O)OC(C)(C)C)c4ccccc4)CC(O)(C(OC(=O)c4ccccc4)C21)C3(C)C (centres unmarked) [Compound I-7] below 6 nM, do you know?
label 0

Lab note: IC50 threshold 6 nM. Does this compound come in strictly under it? CC(=O)OC12COC1CC(O)C1(C)C(=O)C(OC(=O)Nc3ccc(C(C)O)cc3)C3=C(C)C(OC(=O)C(O)C(NC(=O)OC(C)(C)C)c4ccccc4)CC(O)(C(OC(=O)c4ccccc4)C21)C3(C)C (centres unmarked) [Compound I-3]
label 1

is_below(IC50, 6 nM) for CC(=O)OC12COC1CC(O)C1(C)C(=O)C(OC(=O)Nc3ccc(C(C)O)cc3)C3=C(C)C(OC(=O)C(O)C(NC(=O)OC(C)(C)C)c4ccccc4)CC(O)(C(OC(=O)c4ccccc4)C21)C3(C)C (centres unmarked) [Compound I-1] ?
label 0

----------
- Tested on: human gastric cancer cell line NCI-N87
- PROCEDURE DETAILS: CTG proliferation inhibition, NCI-N87
- Assay type: cell-based
- RUN PARAMETERS: 72 h incubation, read-out: IC50 (nM) of the test compounds for various tumor cell lines
- Method: Testing the inhibition effect of the compounds of Formula (I) and Formula II on the proliferation of various tumor cell lines by CTG method: The CellTiter-Glo Luminescent Cell Viability Assay (CTG) method was used to test the inhibition effect of the compounds of Formula (I) and Formula II on the proliferation of various tumor cell lines, and IC50 value was calculated. […]
# if measured IC50 < 10 nM: yes  # else: no

Identify whether the compound CC(=O)OC12COC1CC(O)C1(C)C(=O)C(OC(=O)Nc3ccc(C(C)O)cc3)C3=C(C)C(OC(=O)C(O)C(NC(=O)OC(C)(C)C)c4ccccc4)CC(O)(C(OC(=O)c4ccccc4)C21)C3(C)C (stereo not drawn) [Compound I-8] records IC50 below 10 nM.
no

I wonder whether CC(=O)OC12COC1CC(O)C1(C)C(=O)C(OC(=O)Nc3ccc(C(C)O)cc3)C3=C(C)C(OC(=O)C(O)C(NC(=O)OC(C)(C)C)c4ccccc4)CC(O)(C(OC(=O)c4ccccc4)C21)C3(C)C (stereo not drawn) [Compound I-7] has IC50 below 10 nM. Can you tell?
no

Hello, is IC50 of the following compound strictly smaller than 10 nM? CC(=O)OC12COC1CC(O)C1(C)C(=O)C(OC(=O)Nc3ccc(C(C)O)cc3)C3=C(C)C(OC(=O)C(O)C(NC(=O)OC(C)(C)C)c4ccccc4)CC(O)(C(OC(=O)c4ccccc4)C21)C3(C)C (stereo not drawn) [Compound I-3]
yes

----------
- System: human esophageal cancer cell line KYSE-410
- PROCEDURE DETAILS: CTG proliferation inhibition, KYSE-410
- Assay type: cell-based
- RUN PARAMETERS: 72 h incubation, read-out: IC50 (nM) of the test compounds for various tumor cell lines
Lab note: compare IC50 with 0.08 nM, writing rule met if less and rule not met if equal or more.

Reference set (4 entries):
# COMPOUND, CATEGORY
records = [
    ("CC(=O)OC12COC1CC(O)C1(C)C(=O)C(OC(=O)Nc3ccc(C(C)O)cc3)C3=C(C)C(OC(=O)C(O)C(NC(=O)OC(C)(C)C)c4ccccc4)CC(O)(C(OC(=O)c4ccccc4)C21)C3(C)C (centres unmarked) [Compound I-3]", "rule not met"),
    ("CC(=O)OC12COC1CC(O)C1(C)C(=O)C(OC(=O)Nc3ccc(C(C)O)cc3)C3=C(C)C(OC(=O)C(O)C(NC(=O)OC(C)(C)C)c4ccccc4)CC(O)(C(OC(=O)c4ccccc4)C21)C3(C)C (centres unmarked) [Compound I-6]", "rule met"),
    ("CC(=O)OC12COC1CC(O)C1(C)C(=O)C(OC(=O)Nc3ccc(C(C)O)cc3)C3=C(C)C(OC(=O)C(O)C(NC(=O)OC(C)(C)C)c4ccccc4)CC(O)(C(OC(=O)c4ccccc4)C21)C3(C)C (centres unmarked) [Compound I-4]", "rule not met"),
    ("CC(=O)OC12COC1CC(O)C1(C)C(=O)C(OC(=O)Nc3ccc(C(C)O)cc3)C3=C(C)C(OC(=O)C(O)C(NC(=O)OC(C)(C)C)c4ccccc4)CC(O)(C(OC(=O)c4ccccc4)C21)C3(C)C (centres unmarked) [Compound I-5]", "rule met"),
]

Field: next compound
Determine whether this compound shows IC50 lower than 0.08 nM (ties excluded): CC(=O)OC12COC1CC(O)C1(C)C(=O)C(OC(=O)Nc3ccc(C(C)O)cc3)C3=C(C)C(OC(=O)C(O)C(NC(=O)OC(C)(C)C)c4ccccc4)CC(O)(C(OC(=O)c4ccccc4)C21)C3(C)C (centres unmarked) [Compound I-7]
rule not met

----------
- System: human gastric cancer cell line NCI-N87
- PROCEDURE DETAILS: CTG proliferation inhibition, NCI-N87
- Assay type: cell-based
- RUN PARAMETERS: 72 h incubation, read-out: IC50 (nM) of the test compounds for various tumor cell lines
# IC50 annotations
Provide the reading as a plain figure in nM.

Some entries whose results are on file:
# MOLECULE, IC50, nM
measured = [
    ("CC(=O)OC12COC1CC(O)C1(C)C(=O)C(OC(=O)Nc3ccc(C(C)O)cc3)C3=C(C)C(OC(=O)C(O)C(NC(=O)OC(C)(C)C)c4ccccc4)CC(O)(C(OC(=O)c4ccccc4)C21)C3(C)C (stereo not drawn) [Compound I-4]", 18.8),
    ("CC(=O)OC12COC1CC(O)C1(C)C(=O)C(OC(=O)Nc3ccc(C(C)O)cc3)C3=C(C)C(OC(=O)C(O)C(NC(=O)OC(C)(C)C)c4ccccc4)CC(O)(C(OC(=O)c4ccccc4)C21)C3(C)C (stereo not drawn) [Compound I-2]", 7.46),
    ("CC(=O)OC12COC1CC(O)C1(C)C(=O)C(OC(=O)Nc3ccc(C(C)O)cc3)C3=C(C)C(OC(=O)C(O)C(NC(=O)OC(C)(C)C)c4ccccc4)CC(O)(C(OC(=O)c4ccccc4)C21)C3(C)C (stereo not drawn) [Compound I-5]", 11.4),
    ("CC(=O)OC12COC1CC(O)C1(C)C(=O)C(OC(=O)Nc3ccc(C(C)O)cc3)C3=C(C)C(OC(=O)C(O)C(NC(=O)OC(C)(C)C)c4ccccc4)CC(O)(C(OC(=O)c4ccccc4)C21)C3(C)C (stereo not drawn) [Compound I-1]", 28.2),
    ("CC(=O)OC12COC1CC(O)C1(C)C(=O)C(OC(=O)Nc3ccc(C(C)=O)cc3)C3=C(C)C(OC(=O)C(O)C(NC(=O)OC(C)(C)C)c4ccccc4)CC(O)(C(OC(=O)c4ccccc4)C21)C3(C)C (stereo not drawn) [II, reference compound]", 20.8),
]

Turning now to a further molecule:
Any idea what IC50 came out for CC(=O)OC12COC1CC(O)C1(C)C(=O)C(OC(=O)Nc3ccc(C(C)O)cc3)C3=C(C)C(OC(=O)C(O)C(NC(=O)OC(C)(C)C)c4ccccc4)CC(O)(C(OC(=O)c4ccccc4)C21)C3(C)C (stereo not drawn) [Compound I-6] on human gastric cancer cell line NCI-N87?
12.9
